The values you see were collected from ChEMBL document CHEMBL3988442.

Entries annotated with measured Percent Effect
System: Wolbachia pipientis
Test: Anti-Wolbachia Cell-Based Screen
Format: functional
Set-up: scale not given: in the data most compounds retested in dose-response had high values
Details: 5 µM
Out of some 48,000 compounds screened, about 13,000 (27%) showed an effect of 50% or more. This is one part of the list.
Attribute measured: Percent Effect (%)

                                    molecule        system_tested  attribute_measured  readout_value
 0         CCn1nc2c(cc1=O)CN(Cc1cc(C)on1)CC2  Wolbachia pipientis      Percent Effect          0.747
 1  O=C(NCc1cccc(F)c1F)c1cc(CN2CCCC(O)C2)on1 (stereo not drawn)  Wolbachia pipientis      Percent Effect         -4.232
 2    COc1ccc(C(=O)Nc2cccc(C(N)=O)c2)c(OC)n1  Wolbachia pipientis      Percent Effect            132
 3  c1cnn(CC2CN(Cc3noc(C4CC4)n3)CCO2)c1 (stereo not drawn)  Wolbachia pipientis      Percent Effect        -0.1842
 4  Cc1ccc2nc(CN(Cc3ccc(C#N)cc3)C(C)C)cc(=O)n2c1  Wolbachia pipientis      Percent Effect         -2.733
 5  CC(C)(C)n1ncc2c(=O)n(CC(=O)NCc3ccco3)cnc21  Wolbachia pipientis      Percent Effect          3.142
 6  O=C(Nc1ccc(-c2ccn[nH]2)cc1)C1CCCN(Cc2ccoc2)C1 (stereo not drawn)  Wolbachia pipientis      Percent Effect          1.932
 7          Cc1c2nnn(CC(=O)N(C)C)c(=O)c2nn1C  Wolbachia pipientis      Percent Effect          15.44
 8  Cc1cc(C[C@@H]2COC[C@H]2NCc2ccccc2C(F)(F)F)on1.O=C(O)CC(O)(CC(=O)O)C(=O)O  Wolbachia pipientis      Percent Effect         -4.697
 9  Cc1cc(C[C@@H]2CCC[C@H]2NCc2cccc(F)c2F)on1.O=C(O)CC(O)(CC(=O)O)C(=O)O  Wolbachia pipientis      Percent Effect          111.2
10  Cc1cc(C[C@@H]2CCC[C@H]2NCc2cc(C)c(O)c(C)c2)on1.O=C(O)CC(O)(CC(=O)O)C(=O)O  Wolbachia pipientis      Percent Effect         -7.471
11          CCOc1ccc(CNC(=O)c2cnc(OC)nc2)cc1  Wolbachia pipientis      Percent Effect         -7.599
12  CCn1ncc2c1C(COCC1CC1)N(Cc1nccs1)CC2.O=C(O)C(F)(F)F.O=C(O)C(F)(F)F (stereo not drawn)  Wolbachia pipientis      Percent Effect          -10.7
13      CCOc1nc2cnccc2n(CC(=O)NCc2ccco2)c1=O  Wolbachia pipientis      Percent Effect          96.93
14  Cc1cccc(-c2noc([C@@H]3Cc4nc[nH]c4CN3)n2)c1  Wolbachia pipientis      Percent Effect        -0.5604
15  CCC(NCc1ccccn1)c1ccccc1OCC(=O)NC (stereo not drawn)  Wolbachia pipientis      Percent Effect          13.68
16        COc1ccc(C(=O)Nc2cccc(SC)c2)c(OC)n1  Wolbachia pipientis      Percent Effect          175.2
17  Cc1cc(C[C@@H]2COC[C@H]2NCc2ccc(Br)s2)on1.O=C(O)CC(O)(CC(=O)O)C(=O)O  Wolbachia pipientis      Percent Effect         -4.105
18  COc1ccccc1NC(=O)Cc1c(C)nc2c(c1C)c(=O)[nH]n2C  Wolbachia pipientis      Percent Effect        -0.4507
19                COc1ccnc(NC(=O)c2cscc2C)c1  Wolbachia pipientis      Percent Effect         -3.049
20  CCn1nc2c(cc1=O)CN(Cc1nc3ccccc3c(=O)[nH]1)CC2  Wolbachia pipientis      Percent Effect         -16.27
21  O=C(CN1CCC(c2cccc(F)c2)C1)NCc1ccco1 (stereo not drawn)  Wolbachia pipientis      Percent Effect         -26.03
22  COc1ccc(C(=O)Nc2ccccc2-c2ccc(=O)n(C)n2)cc1  Wolbachia pipientis      Percent Effect          17.03
23   CCc1ccc(CNC(=O)N2CCN(Cc3cc(C)no3)CC2)s1  Wolbachia pipientis      Percent Effect          7.686
24  COCC1c2c(cnn2CC2CC2)CCN1Cc1cccs1.O=C(O)C(F)(F)F.O=C(O)C(F)(F)F (stereo not drawn)  Wolbachia pipientis      Percent Effect          -10.1
25  Cc1cc(C[C@@H]2CCC[C@H]2NCc2ccccc2C(F)(F)F)on1.O=C(O)CC(O)(CC(=O)O)C(=O)O  Wolbachia pipientis      Percent Effect         -4.697
26  CNC(=O)[C@@H]1[C@@H](c2ccccc2)CN2CCN(Cc3cccs3)C[C@H]12  Wolbachia pipientis      Percent Effect          88.53
27  CCOc1nc2cnccc2n(CC(=O)NCc2ccc(C)cc2)c1=O  Wolbachia pipientis      Percent Effect          143.1
28  Cc1cc(CNC(=O)N2CCN(Cc3ccccc3)C[C@H]2C)on1  Wolbachia pipientis      Percent Effect         -6.347
29     Cc1nc2c(N3CCC(O)(Cn4ccnc4)CC3)ncnc2o1  Wolbachia pipientis      Percent Effect          2.472
30  CN(C)C(=O)NC[C@H]1OC[C@@H]2CCN(Cc3ccoc3)C[C@@H]21  Wolbachia pipientis      Percent Effect         -34.99
31  CCc1nc2c(N3CCCC(c4nccn4CCOC)C3)ncnc2o1 (stereo not drawn)  Wolbachia pipientis      Percent Effect         -3.273
32  CC(C)(C)n1ncc(C(=O)NCCCC(N)=O)c1C(F)(F)F  Wolbachia pipientis      Percent Effect          6.459
33               COc1ncccc1NC(=O)c1cccc(C)n1  Wolbachia pipientis      Percent Effect         -5.429
34  Cc1cc(C[C@@H]2CCC[C@H]2NCc2ccccc2F)on1.O=C(O)CC(O)(CC(=O)O)C(=O)O  Wolbachia pipientis      Percent Effect          109.7
35          CCOc1nc2cccnc2n(CC(=O)NCCOC)c1=O  Wolbachia pipientis      Percent Effect         -3.624
36      COc1ccccc1NCC(=O)Nc1cnn(Cc2ccccn2)c1  Wolbachia pipientis      Percent Effect         -4.871
37  CNC(=O)[C@@H]1[C@H]2CN(Cc3ccoc3)CCN2C[C@H]1c1ccccc1  Wolbachia pipientis      Percent Effect          117.2
38    CCOc1nc2cnccc2n(CC(=O)NCCc2ccccc2)c1=O  Wolbachia pipientis      Percent Effect          107.7
39  Cc1cc(C[C@@H]2CCC[C@H]2NCc2cc(F)ccc2F)on1.O=C(O)CC(O)(CC(=O)O)C(=O)O  Wolbachia pipientis      Percent Effect          83.79
40     COc1cc(NC(=O)c2cccc(N(C)C)c2)cc(OC)c1  Wolbachia pipientis      Percent Effect          6.421
41  COCC1c2c(cnn2CC2CC2)CCN1Cc1nccs1.O=C(O)C(F)(F)F.O=C(O)C(F)(F)F (stereo not drawn)  Wolbachia pipientis      Percent Effect         -17.24
42  Cc1cc(C(=O)N[C@H]2CN(CCO)C[C@@H]2C2CC2)sc1C  Wolbachia pipientis      Percent Effect         -4.663
